# experimental.target: CYP2D6 (Homo sapiens)
# assay.notes: Inhibition of CYP2D6 in human liver microsomes at 1 uM after 20 mins by LC-MS/MS analysis relative to control; values are per cent of control
We begin with a simple list: items and their reported % activity remaining at 20 min, 1 µM.
Number in %, nothing else.

Record excerpt, results attached:
- compound: "O=C(CCc1ccccc1)c1cc(F)ccc1OCC(O)CN1CCC(c2ccccc2)CC1 (stereo not given)"
  readout.units: "%"
  % activity remaining at 20 min, 1 µM: 73
- compound: "O=C(CCc1ccccc1)c1ccccc1OCC(O)CN1CCN(C(c2ccccc2)c2ccccc2)CC1 (stereo not given)"
  readout.units: "%"
  % activity remaining at 20 min, 1 µM: 76
- compound: "O=C(CCc1ccc(F)cc1)c1ccccc1OCC(O)CN1CCN(C(c2ccccc2)c2ccccc2)CC1 (stereo not given)"
  readout.units: "%"
  % activity remaining at 20 min, 1 µM: 83
- compound: "Cc1ccc(N2CCN(CC(O)COc3ccccc3C(=O)CCc3ccccc3)CC2)cc1 (stereo not given)"
  readout.units: "%"
  % activity remaining at 20 min, 1 µM: 92

Shifting focus to the compound that follows.
Using the record for O=C(CCc1ccccc1)c1ccccc1OCC(O)CN1CCC(c2ccccc2)CC1 (stereo not given) , report its % activity remaining at 20 min, 1 µM.
78

----------
# Test system: Plasmodium falciparum
# assay.notes: Antimalarial activity against Plasmodium falciparum K1 after 72 hrs by MSF assay
# Format: functional, organism-based
# assay.context: K1, 72 h
observable: EC50 (µM)
Give just the numeric value; µM need not be written.

- compound: "O=C(CCc1ccccc1)c1cc(F)ccc1OCC(O)CN1CCC(c2ccccc2)CC1 (configuration not stated)"
  readout.units: "µM"
  EC50: 0.26

Next compound, please.
// returns reported EC50 for input O=C(CCc1ccc(F)cc1)c1ccccc1OCC(O)CN1CCN(C(c2ccccc2)c2ccccc2)CC1 (configuration not stated)
0.1

----------
Measured % activity remaining at 20 min, 10 µM accompanies every entry in the list below.
# experimental.target: CYP2D6 (Homo sapiens, UniProt P10635)
# Sequence (P10635 whole entry): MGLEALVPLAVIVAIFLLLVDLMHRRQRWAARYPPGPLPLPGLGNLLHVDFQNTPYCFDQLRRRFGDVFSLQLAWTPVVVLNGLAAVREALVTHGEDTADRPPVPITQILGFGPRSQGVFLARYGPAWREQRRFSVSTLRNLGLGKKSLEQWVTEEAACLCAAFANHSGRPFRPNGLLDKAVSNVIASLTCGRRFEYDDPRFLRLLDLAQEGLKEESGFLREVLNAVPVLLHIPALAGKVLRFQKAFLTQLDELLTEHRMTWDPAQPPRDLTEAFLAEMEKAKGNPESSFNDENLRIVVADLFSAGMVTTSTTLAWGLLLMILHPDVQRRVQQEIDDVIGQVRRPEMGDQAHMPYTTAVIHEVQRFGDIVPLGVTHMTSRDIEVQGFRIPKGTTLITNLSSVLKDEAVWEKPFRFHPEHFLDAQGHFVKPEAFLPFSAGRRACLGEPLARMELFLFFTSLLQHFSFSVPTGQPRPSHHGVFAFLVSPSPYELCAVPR
# assay.notes: Inhibition of CYP2D6 in human liver microsomes at 10 uM after 20 mins by LC-MS/MS analysis relative to control; values are per cent of control
Write the figure, then the unit, nothing else.

- compound: "O=C(CCc1ccccc1)c1cc(F)ccc1OCC(O)CN1CCC(c2ccccc2)CC1 (stereo not given)"
  % activity remaining at 20 min, 10 µM: "34%"
- compound: "O=C(CCc1ccccc1)c1ccccc1OCC(O)CN1CCC(c2ccccc2)CC1 (stereo not given)"
  % activity remaining at 20 min, 10 µM: "31%"
- compound: "Cc1ccc(N2CCN(CC(O)COc3ccccc3C(=O)CCc3ccccc3)CC2)cc1 (stereo not given)"
  % activity remaining at 20 min, 10 µM: "71%"
- compound: "O=C(CCc1ccc(F)cc1)c1ccccc1OCC(O)CN1CCN(C(c2ccccc2)c2ccccc2)CC1 (stereo not given)"
  % activity remaining at 20 min, 10 µM: "76%"

Moving on to another compound below.
Please tell me: % activity remaining at 20 min, 10 µM of O=C(CCc1ccccc1)c1ccccc1OCC(O)CN1CCN(C(c2ccccc2)c2ccccc2)CC1 (stereo not given) , system CYP2D6 (Homo sapiens, UniProt P10635)?
59%

----------
# System: Mus musculus
# assay.notes: AUC (0 to infinity) in CD1 mouse at 200 mg/kg, po
# Format: ADME, organism-based, Plasma
# Set-up: time infinity, dose 200 mg/kg, route oral
# assay.context: in vivo
observable: AUC (µM·h)
Report the value in µM·h with no unit label.

Example cases with answers are listed next.
- compound: "Cc1ccc(N2CCN(CC(O)COc3ccccc3C(=O)CCc3ccccc3)CC2)cc1 (stereo unspecified)"
  observable: "AUC"
  readout.units: "µM·h"
  numeric.value: 6.49
- compound: "O=C(CCc1ccccc1)c1ccccc1OCC(O)CN1CCN(C(c2ccccc2)c2ccccc2)CC1 (stereo unspecified)"
  observable: "AUC"
  readout.units: "µM·h"
  numeric.value: 3.1
- compound: "O=C(CCc1ccccc1)c1cc(F)ccc1OCC(O)CN1CCC(c2ccccc2)CC1 (stereo unspecified)"
  observable: "AUC"
  readout.units: "µM·h"
  numeric.value: 3.75
- compound: "O=C(CCc1ccc(F)cc1)c1ccccc1OCC(O)CN1CCN(C(c2ccccc2)c2ccccc2)CC1 (stereo unspecified)"
  observable: "AUC"
  readout.units: "µM·h"
  numeric.value: 5.67
- compound: "O=C(CCc1ccccc1)c1ccccc1OCC(O)CN1CCC(c2ccccc2)CC1 (stereo unspecified)"
  observable: "AUC"
  readout.units: "µM·h"
  numeric.value: 6.8

Query: AUC; subject: O=C(CCc1ccccc1)c1cc(F)ccc1OCC(O)CN1CCN(C(c2ccccc2)c2ccccc2)CC1 (stereo unspecified)
6.17
